FYI, the data here is from patent US20130210709A1.

Peak Ratio, CHTX, CEM, 1.0 uM listing for selected binders.
- testSystem: CXCR4 receptor (human, UniProt P61073 1-352)
- Sequence (P61073 whole entry): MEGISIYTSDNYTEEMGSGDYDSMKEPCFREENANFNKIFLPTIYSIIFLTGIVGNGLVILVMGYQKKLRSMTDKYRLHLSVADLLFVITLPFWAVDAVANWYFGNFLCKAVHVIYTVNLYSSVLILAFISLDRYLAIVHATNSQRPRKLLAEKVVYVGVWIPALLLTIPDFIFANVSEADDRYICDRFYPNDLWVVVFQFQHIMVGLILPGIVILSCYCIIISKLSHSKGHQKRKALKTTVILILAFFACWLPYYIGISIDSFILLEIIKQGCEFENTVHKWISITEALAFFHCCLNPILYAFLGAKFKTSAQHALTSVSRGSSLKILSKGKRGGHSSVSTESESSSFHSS
- measurementNotes: cell-based or functional assay
* marks the point of attachment. Palmitoyl = CCCCCCCCCCCCCCCC(=O)*; NHhexadecyl = CCCCCCCCCCCCCCCCN*
Lab note: jot down the number only; don't add units.

Lookup: Which Peak Ratio, CHTX, CEM, 1.0 uM value belongs to Palmitoyl-VMGYQKKLRSMTD-NH2 (SMILES CCCCCCCCCCCCCCCC(=O)N[C@H](C(=O)N[C@@H](CCSC)C(=O)NCC(=O)N[C@@H](Cc1ccc(O)cc1)C(=O)N[C@@H](CCC(N)=O)C(=O)N[C@@H](CCCCN)C(=O)N[C@@H](CCCCN)C(=O)N[C@@H](CC(C)C)C(=O)N[C@@H](CCCNC(=N)N)C(=O)N[C@@H](CO)C(=O)N[C@@H](CCSC)C(=O)N[C@H](C(=O)N[C@@H](CC(=O)O)C(N)=O)[C@@H](C)O)C(C)C) [CXCR4 i1 loop compound 35] ?
Found: 1

Lookup: Same for Ac-MGYQKKLRSMTDK-NHhexadecyl (SMILES CCCCCCCCCCCCCCCCNC(=O)[C@H](CCCCN)NC(=O)[C@H](CC(=O)O)NC(=O)[C@@H](NC(=O)[C@H](CCSC)NC(=O)[C@H](CO)NC(=O)[C@H](CCCNC(=N)N)NC(=O)[C@H](CC(C)C)NC(=O)[C@H](CCCCN)NC(=O)[C@H](CCCCN)NC(=O)[C@H](CCC(N)=O)NC(=O)[C@H](Cc1ccc(O)cc1)NC(=O)CNC(=O)[C@H](CCSC)NC(C)=O)[C@@H](C)O) [CXCR4 i1 loop compound 59]
Found: 1

Lookup: Same for Palmitoyl-MGYQKKLRSMTDKYRI-NH2 (SMILES CCCCCCCCCCCCCCCC(=O)N[C@@H](CCSC)C(=O)NCC(=O)N[C@@H](Cc1ccc(O)cc1)C(=O)N[C@@H](CCC(N)=O)C(=O)N[C@@H](CCCCN)C(=O)N[C@@H](CCCCN)C(=O)N[C@@H](CC(C)C)C(=O)N[C@@H](CCCNC(=N)N)C(=O)N[C@@H](CO)C(=O)N[C@@H](CCSC)C(=O)N[C@H](C(=O)N[C@@H](CC(=O)O)C(=O)N[C@@H](CCCCN)C(=O)N[C@@H](Cc1ccc(O)cc1)C(=O)N[C@@H](CCCNC(=N)N)C(=O)N[C@H](C(N)=O)[C@@H](C)CC)[C@@H](C)O) [CXCR4 i1 loop compound 49]
Found: 0.2

Kindly consider the entry below.
Lookup: Which Peak Ratio, CHTX, CEM, 1.0 uM value belongs to Palmitoyl-KKLRSMTDKYRLHLSV-NH2 (SMILES CCCCCCCCCCCCCCCC(=O)N[C@@H](CCCCN)C(=O)N[C@@H](CCCCN)C(=O)N[C@@H](CC(C)C)C(=O)N[C@@H](CCCNC(=N)N)C(=O)N[C@@H](CO)C(=O)N[C@@H](CCSC)C(=O)N[C@H](C(=O)N[C@@H](CC(=O)O)C(=O)N[C@@H](CCCCN)C(=O)N[C@@H](Cc1ccc(O)cc1)C(=O)N[C@@H](CCCNC(=N)N)C(=O)N[C@@H](CC(C)C)C(=O)N[C@@H](Cc1c[nH]cn1)C(=O)N[C@@H](CC(C)C)C(=O)N[C@@H](CO)C(=O)N[C@H](C(N)=O)C(C)C)[C@@H](C)O) [CXCR4 i1 loop compound 41] ?
Found: 0.01
